Provide the recorded cell viability for the entries that follow.
- System: myeloid leukemia patient primary cells Pat.8
- protocol: cell viability (% survival relative to DMSO control); higher = less cytotoxic
- particulars: 10000 nM; 72 h
Give bare numbers, in %.

compound | unit-spec | cell viability
CC12CCC(O)CC1CCC1C2CCC2(C)C(C3=CC(=O)OC3)CCC12O (stereo not given) | % | 2.31

Hello, I would appreciate it if you could give cell viability for each entry below.
1. Nc1ccn([C@@H]2O[C@H](CO)[C@@H](O)[C@@H]2O)c(=O)n1
2. CCOC(=O)N1c2ccc(C(F)(F)F)cc2[C@@H](N(Cc2cc(C(F)(F)F)cc(C(F)(F)F)c2)C(=O)OC)C[C@H]1CC
3. CC(Cc1ccc(O)c(O)c1)C(C)Cc1ccc(O)c(O)c1 (stereo not given)

result:
1. 22.4
2. 65.7
3. 6.74

query: Query for myeloid leukemia patient primary cells Pat.8: what cell viability does the record show for COc1c(C)c2c(c(O)c1C/C=C(\C)CCC(=O)O)C(=O)OC2 ?
result: 43.8

###

- Test system: KCL-22
- protocol: cell viability (% survival relative to DMSO control, bortezomib = 0%); higher = less cytotoxic
- particulars: 1000 nM; 72 h
Field: cell viability. Provide a value for each of the compounds that follow.
One number for each entry, in %.

compound | cell viability (%)
CN(C/C=C/C#CC(C)(C)C)Cc1cccc2ccccc12 | 104
CCOc1ccc(Cc2cc([C@@H]3O[C@H](CO)[C@@H](O)[C@H](O)[C@H]3O)ccc2Cl)cc1 | 96.7
NC(=O)c1ncn([C@@H]2O[C@H](CO)[C@@H](O)[C@H]2O)n1 | 107

For each entry beneath this line, provide reported cell viability.
1. CCN(CC)CCN(Cc1ccc(-c2ccc(C(F)(F)F)cc2)cc1)C(=O)Cn1c(SCc2ccc(F)cc2)nc(=O)c2c1CCC2
2. COc1cc2c(NC3CCN(C)CC3)nc(N3CCCN(C)CC3)nc2cc1OCCCN(C)C
3. Cl.OC[C@H]1NC[C@@H](O)[C@@H](O)[C@@H]1O [1-Deoxymannojirimycin hydrochloride]
4. CCCc1nn(C)c2c(O)nc(-c3cc(S(=O)(=O)N4CCN(C)CC4)ccc3OCC)nc12

result:
1: 86.3; 2: 94.9; 3: 111; 4: 88.7

Give cell viability for each listed item.
1. [N-]=[N+]=CC(=O)CC[C@H](N)C(=O)O
2. Sc1ncnc2nc[nH]c12
3. CC(/C=C1\SC(=S)N(CC(=O)O)C1=O)=C\c1ccccc1
4. CC(C(=O)O)C(=O)O [Methylmalonate]

result:
1: 109; 2: 52; 3: 101; 4: 88.3

// input: 5 compounds below; output: cell viability for each
1. C[C@]12CC[C@H](O)CC1=CC[C@@H]1[C@@H]2CC[C@]2(C)C(c3cccnc3)=CC[C@@H]12
2. CCOC(=O)[C@H]1O[C@@H]1C(=O)N[C@@H](CC(C)C)C(=O)NCCC(C)C
3. Cc1c(-c2ccccc2)oc2c(C(=O)OCCN3CCCCC3)cccc2c1=O.Cl [Flavoxate]
4. CCOC(=O)[C@@]1(CCCCCCOc2ccc(Cl)cc2)CO1
5. O=C1Nc2ccccc2/C1=C\NCCc1ccc(O)c(O)c1

result:
[112, 99.5, 95.6, 101, 106]
